# Test system: PA-1
# ASSAY NAME: Primary qHTS to identify gynecologic anti-cancer compounds using libraries of approved drugs and bioactive compounds (AID 1345084); note: nearly all actives have a fitted effect of over 55% in size
# TEST PARAMETERS: Gynecologic cancer cell panel viability, ATPlite luminescence, 48 h; series mostly up to 57.5 µM
Results filed as inconclusive are left out. The source made the active and inactive calls. Calls come from the whole dose curve; as a rule, active = well fitted cell-killing curve with a large enough effect; inconclusive = small, poorly fitted or top-dose-only effect, or effect the other way; inactive = flat fitted curve, though single readings scatter.
Hi! Could you answer with just one of these? active, inactive

Incoming: Recorded test call requested for `Cc1cnn(-c2ccccc2)c1NC(=O)COCc1ccccc1`
Outgoing: inactive

Incoming: Recorded test call requested for `OC[C@H]1O[C@@H](OC/C=C/c2ccc(O)cc2)[C@H](O)[C@@H](O)[C@@H]1O`
Outgoing: inactive

Incoming: Recorded test call requested for `CC(C)(CNC(=O)c1cccc(-c2noc(C(F)(F)F)n2)c1)c1coc(-c2ccccc2)n1`
Outgoing: inactive

Incoming: Recorded test call requested for CC(=O)OC1CC(C)C2(CCC3(CC(=O)OC3O)O2)C2(C)CCCC(C)(C)C12 (stereo unspecified)
Outgoing: inactive

Incoming: Recorded test call requested for `C=C[C@]1(C)C[C@H](O)[C@H]2C(=C)C(=O)O[C@@H]2[C@H]1C(=C)CO`
Outgoing: inactive

Incoming: Recorded test call requested for O=C(Nc1ccccc1C(=O)NC1CCCCNC1=O)c1cc2ccccc2s1 (stereo unspecified)
Outgoing: inactive

Incoming: Recorded test call requested for `C/C(=C\CO[C@@H]1O[C@H](CO[C@H]2OC[C@](O)(CO)[C@H]2O)[C@@H](O)[C@H](O)[C@H]1O)C(C)(C)O`
Outgoing: inactive

Incoming: Recorded test call requested for CC1CCC(=O)CC(SCC(O)C(=O)O)CCC(=O)O1 (stereo unspecified)
Outgoing: inactive

Incoming: Recorded test call requested for C=C1C(=O)OC2CC(C)C(CCC(C)O)=CCC12 (stereo unspecified)
Outgoing: inactive

Incoming: Recorded test call requested for C=C1C(=O)OC2/C=C(\CO)CC/C=C(\C=O)C(O)C(OC(=O)C(C)CC)C12 (stereo unspecified)
Outgoing: inactive

Incoming: Recorded test call requested for C=C1CC[C@@H]2[C@](C)(CO)[C@H](O)CC[C@@]2(C)[C@@H]1CC(O)C1=CCOC1=O (stereo partly specified)
Outgoing: inactive

Incoming: Recorded test call requested for CCC(C)CNCC(=O)N1CCc2sccc2C1COc1cccc(C)c1 (stereo unspecified)
Outgoing: inactive

Incoming: Recorded test call requested for `C[C@]12CC[C@@H]3c4ccc(O)c(O)c4CC[C@H]3[C@@H]1CCC2=O`
Outgoing: inactive

Incoming: Recorded test call requested for C=CC(C)(C)C12CC3C(=O)N4C(CC5(C(C)(C)C=C)c6ccccc6NC45)C(=O)N3C1Nc1ccccc12 (stereo unspecified)
Outgoing: inactive

Incoming: Recorded test call requested for `CC[C@H](C)/C=C(C)/C=C/C1=CC2=C(Cl)C(=O)[C@](C)(O)[C@H](OC(C)=O)[C@H]2CO1`
Outgoing: inactive

Incoming: Recorded test call requested for `Cc1cc(Nc2nc(-c3ccccc3)nc3ccccc23)n[nH]1`
Outgoing: active

Incoming: Recorded test call requested for C/C=C(\C)C(=O)OC1C[C@@]2(COC(C)=O)O[C@H]2/C=C\[C@@]2(C)O[C@@H]2[C@H]2OC(=O)C(COC(C)=O)=C12 (stereo partly specified)
Outgoing: inactive

Incoming: Recorded test call requested for COc1cc(F)c(F)c(Nc2ccc(I)cc2F)c1NS(=O)(=O)C1(CC(O)CO)CC1 (stereo unspecified)
Outgoing: inactive

Incoming: Recorded test call requested for CC(C)CCNC(=O)c1ccc2c(c1)nc(Nc1n[nH]c3ccc(-c4ccccc4OC(F)(F)F)cc13)n2C1CCC(O)CC1 (stereo unspecified)
Outgoing: inactive

Incoming: Recorded test call requested for `CN1CCN(C2=Nc3ccccc3Nc3ccc(Cl)cc32)CC1`
Outgoing: inactive

Incoming: Recorded test call requested for `CCOc1ccc(CCNC(=O)c2cc3sc(Cl)cc3n2C)cc1OCC`
Outgoing: inactive

Incoming: Recorded test call requested for `CCCc1cc(C)n(C)c(=O)c1CN(C)C(=O)c1cc(-c2ccc(N3CCN(C(C)C)CC3)nc2)cc2c1cnn2C(C)C`
Outgoing: inactive

Incoming: Recorded test call requested for CCC(C)C(=O)Oc1cc(C)ccc1C1(COC(=O)C(C)C)CO1 (stereo unspecified)
Outgoing: inactive

Incoming: Recorded test call requested for `COc1cc(CN(CCN)C(=O)c2cccs2)ccc1OCc1ccccc1`
Outgoing: inactive

Incoming: Recorded test call requested for `CC(C)c1c(O)ccc2c1CC[C@H]1C(C)(C)CCC[C@]21C`
Outgoing: inactive

Incoming: Recorded test call requested for `COc1ccccc1C(=O)Nc1cc2c(cc1N1CCCC1)n(C)c(=O)n2C`
Outgoing: inactive

* * *

# System: Es-2
# ASSAY NAME: Primary qHTS to identify gynecologic anti-cancer compounds using libraries of approved drugs and bioactive compounds (AID 1345084); note: nearly all actives have a fitted effect of over 55% in size
# TEST PARAMETERS: Gynecologic cancer cell panel viability, ATPlite luminescence, 48 h; series mostly up to 57.5 µM
Records with an inconclusive call do not appear. The source made the active and inactive calls. Calls follow the shape of the dose curve; as a rule, active = well fitted cell-killing curve with a large enough effect; inconclusive = small, poorly fitted or top-dose-only effect, or effect the other way; inactive = flat fitted curve, though single readings scatter.
Hi! Could you answer with just one of these? 1 = active, -1 = inactive

Incoming: Recorded test call requested for `Fc1ccc(-c2nc(-c3c(F)cccc3F)[nH]c2-c2ccncc2)cc1`
Outgoing: -1

Incoming: Recorded test call requested for `O=C(Nc1ccccc1)N1CCC(Cc2cnc3ccccc3c2)CC1`
Outgoing: -1

Incoming: Recorded test call requested for `O=C(O)CCc1nccc2c1[nH]c1ccccc12`
Outgoing: -1

Incoming: Recorded test call requested for CC1(C)CCCC2(C)C1C(=O)C=C(C(=O)O)C2(O)C(=O)O (configuration not stated)
Outgoing: -1

Incoming: Recorded test call requested for `Cn1ncc(Cl)c1-c1cc(C(=O)N[C@H](CN)Cc2ccc(F)c(F)c2)sc1Cl`
Outgoing: -1

Incoming: Recorded test call requested for `NC(N)=NC(=O)c1cnn(-c2cccc3ncccc23)c1C1CC1`
Outgoing: -1

Incoming: Recorded test call requested for `COc1ccc([C@H](Cc2ccncc2)c2ccccc2)cc1OC1CCCC1`
Outgoing: -1

Incoming: Recorded test call requested for `O=C(NC[C@H]1CN(c2ccc(N3CCOCC3=O)cc2)C(=O)O1)c1ccc(Cl)s1`
Outgoing: -1

Incoming: Recorded test call requested for C=CC1(C)CC(O)C(C(=C)C(=O)OC)C(O)C1C(=C)CO (configuration not stated)
Outgoing: -1

Incoming: Recorded test call requested for `C#CCNCc1cc2cc(OCc3ccccc3)ccc2[nH]1`
Outgoing: -1

Incoming: Recorded test call requested for `CCn1c(=O)c(-c2ccc(-c3cncs3)cc2Cl)cc2cnc(Nc3ccc(N4CCN(C)CC4)cc3)nc21`
Outgoing: -1

Incoming: Recorded test call requested for `C=C1C(=O)O[C@@H]2C[C@@]3(C)CCCC(=C)[C@]3(O)C[C@H]12`
Outgoing: -1

Incoming: Recorded test call requested for `CC(=O)O[C@@H]1CC[C@@]2(C)[C@H](CC[C@@H]3[C@@H]2C[C@H](OC(C)=O)[C@]2(C)[C@@H](C(C)=O)CC[C@@H]32)C1`
Outgoing: -1

Incoming: Recorded test call requested for `Cc1cc(F)c(C(=O)Nc2cccc(-c3nncn3C(C)C)n2)cc1-n1cnc(C2CC2)c1`
Outgoing: -1

Incoming: Recorded test call requested for CN1CC2CN(c3ccc4oc5ccccc5c(=O)c4c3)CC2C1 (configuration not stated)
Outgoing: -1

Incoming: Recorded test call requested for `O=S(=O)(Cc1ccccc1)Nc1ccc(-c2ccc3c(cnn3-c3ccc(F)cc3)c2)c(C(F)(F)F)c1`
Outgoing: -1

Incoming: Recorded test call requested for `CC(C)c1c(O)ccc2c1CC[C@H]1C(C)(C)CCC[C@]21C`
Outgoing: -1

Incoming: Recorded test call requested for C/C1=C/CCC2=CC(OC2=O)C(C)(C)/C=C/C1=O (configuration not stated)
Outgoing: 1

Incoming: Recorded test call requested for COC1CC(O[C@H]2CC[C@]3(C)C4CC[C@]5(C)C(C6=CC(=O)OC6)=CCC56OC46CC[C@@H]3C2)OC(C)C1O[C@@H]1O[C@H](CO[C@@H]2O[C@H](CO)[C@@H](O)[C@H](O)[C@H]2O)[C@@H](O)[C@H](O)[C@H]1O (some centres not stated)
Outgoing: 1

Incoming: Recorded test call requested for `C=C1/C(=C/C=C2\CCC[C@]3(C)[C@@H]([C@@H](C)OCCC(O)(CC)CC)CC[C@@H]23)C[C@@H](O)C[C@@H]1O`
Outgoing: -1

Incoming: Recorded test call requested for COc1ccccc1OCCNCC(O)CCOc1cccc2[nH]c3ccccc3c12 (configuration not stated)
Outgoing: -1

Incoming: Recorded test call requested for `Cc1ccccc1CN1CCn2c1nc1c(c2=O)CN(Cc2ccccc2)CC1`
Outgoing: -1

Incoming: Recorded test call requested for CO[C@H]1O[C@@H]2O[C@@]3(C)CCC4[C@H](C)CCC([C@H]1C)[C@]42OO3 (some centres not stated)
Outgoing: -1

Incoming: Recorded test call requested for COc1cc(C(=O)O)ccc1NC(=O)C1NC(CC(C)(C)C)C(C#N)(c2ccc(Cl)cc2F)C1c1cccc(Cl)c1F (configuration not stated)
Outgoing: -1

Incoming: Recorded test call requested for `CN(C)C(=O)Nc1cccc(-c2ccc(N(C)C)cc2)c1`
Outgoing: -1

Incoming: Recorded test call requested for `c1ccc(-c2ccc(CNc3nc(-c4ccccn4)nnc3-c3ccccc3)cc2)cc1`
Outgoing: 1

Incoming: Recorded test call requested for COC(=O)CC[C@@H](C)C1CCC2C3CCC4C[C@H](OC(C)=O)CCC4(C)C3C[C@H](O)C21C (some centres not stated)
Outgoing: -1

Incoming: Recorded test call requested for `Cc1cc(F)ccc1[C@H]1C[C@@H](N2CCN3C(=O)CC[C@H]3C2)CCN1C(=O)N(C)[C@H](C)c1cc(C(F)(F)F)cc(C(F)(F)F)c1`
Outgoing: -1

Incoming: Recorded test call requested for `C[C@@H](O[C@H]1OCCN(Cc2nn(P(=O)(O)O)c(=O)[nH]2)[C@H]1c1ccc(F)cc1)c1cc(C(F)(F)F)cc(C(F)(F)F)c1`
Outgoing: -1

Incoming: Recorded test call requested for COc1c2c(nc3occc13)C(CC=C(C)C)(OC)C(O)CC2 (configuration not stated)
Outgoing: -1

Incoming: Recorded test call requested for `COc1cc(/C=C/C(=O)NCCn2c(C(F)(F)F)cc3ccccc32)cc(OC)c1OC`
Outgoing: -1

Incoming: Recorded test call requested for CNC(C)C(=O)NC(C(=O)N1CCCC1C(=O)Nc1snnc1-c1ccccc1)C1CCCCC1 (configuration not stated)
Outgoing: -1

Incoming: Recorded test call requested for `COc1ccc2c(c1O[C@H]1CCNC1)CCC2`
Outgoing: -1

Incoming: Recorded test call requested for `COC1CCN(C(=O)c2cc(Cc3n[nH]c(=O)c4ccccc34)ccc2F)CC1`
Outgoing: -1

Incoming: Recorded test call requested for `N#Cc1cnc2c(Cl)cc(NCc3cn(CCN4CCCCCC4)nn3)cc2c1Nc1ccc(F)c(Cl)c1`
Outgoing: -1

Incoming: Recorded test call requested for CC1(C)CC[C@]2(C(=O)O)CC[C@]3(C)C(=CCC4[C@@]5(C)C[C@@H](O)[C@H](O)[C@@](C)(CO)C5CC[C@]43C)[C@@H]2[C@@H]1O (some centres not stated)
Outgoing: -1

Incoming: Recorded test call requested for CC1=C2C[C@@]3(C)C(CCC[C@@H]3C)C(O)C2OC1=O (some centres not stated)
Outgoing: -1
